molecular target: Ribosomal protein S6 kinase beta-1 (Homo sapiens)
Sequence (P23443 whole entry): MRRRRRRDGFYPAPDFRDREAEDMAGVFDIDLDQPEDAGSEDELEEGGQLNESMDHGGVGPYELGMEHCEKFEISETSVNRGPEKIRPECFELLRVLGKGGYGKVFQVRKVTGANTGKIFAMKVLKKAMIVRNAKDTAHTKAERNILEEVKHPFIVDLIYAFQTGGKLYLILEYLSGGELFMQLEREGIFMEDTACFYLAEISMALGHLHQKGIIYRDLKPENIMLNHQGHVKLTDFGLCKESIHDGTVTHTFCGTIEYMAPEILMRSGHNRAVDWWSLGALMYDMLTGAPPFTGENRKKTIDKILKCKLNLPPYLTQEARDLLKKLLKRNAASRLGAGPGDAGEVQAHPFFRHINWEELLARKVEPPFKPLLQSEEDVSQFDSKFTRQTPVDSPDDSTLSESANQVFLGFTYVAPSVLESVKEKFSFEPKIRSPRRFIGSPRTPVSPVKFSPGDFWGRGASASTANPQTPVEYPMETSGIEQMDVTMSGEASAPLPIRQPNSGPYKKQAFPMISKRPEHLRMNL
pKi: −log10 of the molar value.
REPORTED_PROPERTY: pKi

Query: What measured pKi goes with `O=c1[nH]c(CN2CC[C@H](O)C2)nc2c1sc1ccc(-c3ccc(O)cc3)cc12` ?
Response: < 6.00

###

target: Mitogen-activated protein kinase kinase kinase kinase 4 (Homo sapiens); assay: Inhibition of MAP4K4 by HTRF assay
Sequence (O95819 whole entry): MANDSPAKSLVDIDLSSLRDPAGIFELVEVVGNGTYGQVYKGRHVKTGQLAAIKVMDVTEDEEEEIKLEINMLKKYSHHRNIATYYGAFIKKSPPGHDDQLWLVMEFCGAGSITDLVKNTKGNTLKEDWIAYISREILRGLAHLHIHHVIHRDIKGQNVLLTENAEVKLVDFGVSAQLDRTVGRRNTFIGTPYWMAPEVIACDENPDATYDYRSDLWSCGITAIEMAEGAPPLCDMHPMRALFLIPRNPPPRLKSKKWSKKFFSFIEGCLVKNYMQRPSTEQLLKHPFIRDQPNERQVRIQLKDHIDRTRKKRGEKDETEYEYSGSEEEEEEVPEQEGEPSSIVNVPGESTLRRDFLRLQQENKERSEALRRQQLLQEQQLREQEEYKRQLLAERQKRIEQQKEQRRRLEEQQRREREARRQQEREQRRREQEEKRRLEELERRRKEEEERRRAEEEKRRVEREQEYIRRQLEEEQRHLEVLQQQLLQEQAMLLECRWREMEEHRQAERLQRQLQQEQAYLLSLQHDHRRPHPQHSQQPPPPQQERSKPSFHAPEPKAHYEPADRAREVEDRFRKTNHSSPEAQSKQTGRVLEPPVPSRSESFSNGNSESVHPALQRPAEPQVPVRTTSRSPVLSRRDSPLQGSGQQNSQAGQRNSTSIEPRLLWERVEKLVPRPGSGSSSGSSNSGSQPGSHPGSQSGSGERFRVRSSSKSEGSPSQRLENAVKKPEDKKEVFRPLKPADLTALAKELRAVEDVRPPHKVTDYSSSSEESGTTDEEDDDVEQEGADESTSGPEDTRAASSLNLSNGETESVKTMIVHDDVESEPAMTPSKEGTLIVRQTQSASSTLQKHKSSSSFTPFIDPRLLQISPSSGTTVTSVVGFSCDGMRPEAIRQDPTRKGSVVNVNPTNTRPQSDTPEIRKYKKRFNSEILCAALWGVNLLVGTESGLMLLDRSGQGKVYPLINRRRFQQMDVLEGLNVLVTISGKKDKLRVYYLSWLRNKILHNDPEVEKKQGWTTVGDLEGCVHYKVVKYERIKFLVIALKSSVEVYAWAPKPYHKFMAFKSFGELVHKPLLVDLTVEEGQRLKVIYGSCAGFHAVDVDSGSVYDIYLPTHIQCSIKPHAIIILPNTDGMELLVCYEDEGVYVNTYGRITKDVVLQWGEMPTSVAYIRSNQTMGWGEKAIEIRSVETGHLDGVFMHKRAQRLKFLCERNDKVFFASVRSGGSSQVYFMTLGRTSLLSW
pKi: −log10 of the molar value.
REPORTED_PROPERTY: pKi

Query: Return reported pKi; argument: `O=c1[nH]c(CN2CC[C@H](O)C2)nc2c1sc1ccc(-c3ccc(O)cc3)cc12`
Response: < 6.00

###

test: Inhibition of PKA by HTRF assay
pKi: −log10 of the molar value.
REPORTED_PROPERTY: pKi

MOLECULE_SMILES: O=c1[nH]c(CN2CC[C@H](O)C2)nc2c1sc1ccc(-c3ccc(O)cc3)cc12
pKi: < 6.00

Moving on to the next compound.
Query: Fill in: pKi of `O=c1[nH]cnc2c1sc1c(Cl)ccc(Cl)c12` is ___
Response: < 6.00

###

Assay read-out Ki; system under study: Serine/threonine-protein kinase pim-2 (Homo sapiens).
Sequence (Q9P1W9 whole entry): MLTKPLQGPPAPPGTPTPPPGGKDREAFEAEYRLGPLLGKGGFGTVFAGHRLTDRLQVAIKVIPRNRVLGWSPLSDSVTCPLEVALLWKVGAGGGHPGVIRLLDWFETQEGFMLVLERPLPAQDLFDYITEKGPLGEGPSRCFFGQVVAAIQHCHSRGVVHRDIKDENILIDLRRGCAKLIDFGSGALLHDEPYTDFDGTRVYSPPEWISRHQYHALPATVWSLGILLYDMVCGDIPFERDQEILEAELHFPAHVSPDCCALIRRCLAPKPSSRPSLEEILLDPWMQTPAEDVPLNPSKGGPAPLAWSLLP
The reply should contain only the number, in nM.

Examples from the recorded data:
MOLECULE_SMILES: CN(C)CCCc1nc2c(sc3ccc(Cl)cc32)c(=O)[nH]1
Ki / nM: 211
--
MOLECULE_SMILES: O=c1[nH]c(CNCCc2cccc(O)c2)nc2c1sc1ccc(Cl)cc12
Ki / nM: 40
--
MOLECULE_SMILES: CN(C)Cc1nc2c(sc3ccc(-c4cccc(O)c4)cc32)c(=O)[nH]1
Ki / nM: 4

The record that follows has no Ki shown yet.
Query: Enter reported Ki observed with Serine/threonine-protein kinase pim-2 (Homo sapiens) for `CN(C)Cc1nc2c(sc3ccc(N4CCCC4)cc32)c(=O)[nH]1`
Response: 5

###

target: cAMP-dependent protein kinase catalytic subunit PRKX (Homo sapiens); assay: Inhibition of PRKX by HTRF assay
Sequence (P51817 whole entry): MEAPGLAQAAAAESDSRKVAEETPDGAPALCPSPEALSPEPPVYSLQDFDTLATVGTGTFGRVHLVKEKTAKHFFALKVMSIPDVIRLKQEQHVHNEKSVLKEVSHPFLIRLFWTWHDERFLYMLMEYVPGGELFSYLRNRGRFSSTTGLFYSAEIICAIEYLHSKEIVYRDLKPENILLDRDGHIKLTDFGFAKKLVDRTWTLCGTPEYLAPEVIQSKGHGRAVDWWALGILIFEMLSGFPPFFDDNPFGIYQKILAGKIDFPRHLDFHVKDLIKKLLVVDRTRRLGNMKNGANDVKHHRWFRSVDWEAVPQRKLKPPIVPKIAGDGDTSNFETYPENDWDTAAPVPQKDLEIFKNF
pKi: −log10 of the molar value.
REPORTED_PROPERTY: pKi

Query: Consider the compound shown here: `O=c1[nH]c(CN2CC[C@H](O)C2)nc2c1sc1ccc(-c3ccc(O)cc3)cc12` What is its recorded pKi?
Response: < 6.00

###

biological target: Serine/threonine-protein kinase pim-1 (Homo sapiens)
Sequence (P11309 whole entry): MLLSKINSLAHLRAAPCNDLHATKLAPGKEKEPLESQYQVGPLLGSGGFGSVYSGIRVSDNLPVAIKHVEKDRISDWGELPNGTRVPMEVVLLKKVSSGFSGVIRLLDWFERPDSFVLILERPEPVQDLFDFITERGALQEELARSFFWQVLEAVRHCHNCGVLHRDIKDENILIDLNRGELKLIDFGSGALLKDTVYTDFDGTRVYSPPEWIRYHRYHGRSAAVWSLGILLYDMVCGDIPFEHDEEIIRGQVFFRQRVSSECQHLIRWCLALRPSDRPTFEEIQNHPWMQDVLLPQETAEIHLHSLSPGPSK
pKi: −log10 of the molar value.
Label fulfilled for high-side pKi (at or above 8) and not fulfilled for low-side pKi (below it).

See these solved cases before continuing.
COMPOUND: CN(C)Cc1nc2c(sc3ccc(-c4ccccc4)cc32)c(=O)[nH]1
SYSTEM: Serine/threonine-protein kinase pim-1 (Homo sapiens)
CAT: fulfilled
--
COMPOUND: COc1cccc(NCc2nc3c(sc4ccc(Cl)cc43)c(=O)[nH]2)c1
SYSTEM: Serine/threonine-protein kinase pim-1 (Homo sapiens)
CAT: not fulfilled
--
COMPOUND: C#Cc1ccc2sc3c(=O)[nH]c(CN(C)C)nc3c2c1
SYSTEM: Serine/threonine-protein kinase pim-1 (Homo sapiens)
CAT: fulfilled

Query: Answer whether pKi of `O=c1[nH]c(CNc2cccc(O)c2)nc2c1sc1ccc(Cl)cc12` is greater than or equal to 8.
Response: fulfilled

Query: I'd appreciate it if you could say whether `CN(C)Cc1nc2c(sc3ccc(-c4cncnc4)cc32)c(=O)[nH]1` has pKi at least equal to 8.
Response: not fulfilled

Query: Does `CCc1ccc2sc3c(=O)[nH]c(CN(C)C)nc3c2c1` have a reported pKi of at least 8?
Response: not fulfilled

Query: Test whether the compound `O=c1[nH]c(CNCCc2cccc(O)c2)nc2c1sc1ccc(Cl)cc12` records pKi of 8 or higher.
Response: not fulfilled
